Item-by-item account of EC50
test system: c-Jun phosphorylation; experiment: High throughput microscopy of c-Jun phosphorylation in A375 cells; type: cell-based; details: Homo sapiens, A-375; A375 cells, anisomycin stimulation; read-out: p-c-Jun EC50 (nM) A375

Sample answers from the record:
Cc1cc(NC(=O)c2cccc(NC(=O)/C=C/CN(C)C)c2)ccc1Nc1nccc(-c2cccnc2)n1 ... 338 nM
CN(C)C/C=C/C(=O)Nc1cccc(C(=O)Nc2ccc(Nc3nccc(/C(C#N)=C4\Nc5ccccc5S4)n3)cc2)c1 ... 134 nM
C=CC(=O)Nc1cccc(C(=O)Nc2ccc(Nc3nccc(-c4cccnc4)n3)cc2)c1 ... 32 nM

Need EC50 of "CN(C)C/C=C/C(=O)Nc1cccc(C(=O)Nc2ccc(Nc3nccc(-c4c(-c5ccccc5)nn5ccccc45)n3)cc2)c1" , thanks.
8.6 nM

Need EC50 of "Cc1ccc(NC(=O)/C=C/CN(C)C)cc1C(=O)Nc1ccc(Nc2nccc(-c3cccnc3)n2)cc1" , thanks.
117 nM

Need EC50 of "CCC(=O)Nc1cccc(C(=O)Nc2ccc(Nc3nccc(-c4cccnc4)n3)cc2)c1" , thanks.
1900 nM

Need EC50 of Oc1c2ccccc2c2c3c(cccc13)N=N2 [SP-600125, reference compound] , thanks.
1980 nM

Need EC50 of "Cc1ccc(C(=O)Nc2ccc(Nc3nccc(-c4cccnc4)n3)cc2)cc1NC(=O)/C=C/CN(C)C" , thanks.
141 nM
